Numbers sourced from patent US20080287445A1.

target: GPR73 (prokineticin 1 receptor) (Homo sapiens); construct: expressed in transfected cells; host or cells: HEK 293; test: PK1 functional assay: Ca2+ mobilization screening for PK1 antagonists on the FLIPR; type: cell-based; conditions: HEK293, 10 μM compound; HEK 293 GPR73 cells; multiple values = multiple testing; read-out: Ca^2+ Mobilization % Inh @ 10 μM
Sequence (Q8TCW9 whole entry, species assumed): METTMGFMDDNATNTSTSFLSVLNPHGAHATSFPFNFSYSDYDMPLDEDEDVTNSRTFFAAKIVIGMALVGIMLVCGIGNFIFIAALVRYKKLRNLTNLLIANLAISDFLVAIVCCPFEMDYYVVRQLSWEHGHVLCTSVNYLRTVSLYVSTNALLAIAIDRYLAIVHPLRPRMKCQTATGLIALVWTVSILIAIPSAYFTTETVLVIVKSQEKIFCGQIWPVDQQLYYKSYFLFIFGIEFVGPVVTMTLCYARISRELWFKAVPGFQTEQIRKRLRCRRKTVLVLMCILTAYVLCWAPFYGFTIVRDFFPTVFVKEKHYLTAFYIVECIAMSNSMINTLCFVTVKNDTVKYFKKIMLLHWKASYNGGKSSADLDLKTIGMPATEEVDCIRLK

Molecule: COc1ccc(Cn2c(NCc3cnc(C)cn3)nc(=O)n(Cc3ccc(OC)cc3)c2=O)cc1
inhibition at 10 µM / %: 100
//
Molecule: Cc1cc(C)c(CNc2nc(=O)n(Cc3ccccc3C#N)c(=O)n2Cc2ccc(OC(F)F)cc2)cn1
inhibition at 10 µM / %: 37
//
Molecule: COc1ccc(Cn2c(=O)nc(NCc3c(C)cc(C)nc3N)n(Cc3ccc4c(c3)CC(C)O4)c2=O)cc1 (stereo not shown)
inhibition at 10 µM / %: 103
//
Molecule: COc1ccc(Cn2c(NCc3c(C)cc(C)nc3N3CCCCC3)nc(=O)n(Cc3ccc(OC)cc3)c2=O)cc1
inhibition at 10 µM / %: 45
